Target or system: T1, Murine CTGF (Mus musculus, UniProt P29268)
T1 construct: purchased Abbexa
T1 sequence (P29268 26-348): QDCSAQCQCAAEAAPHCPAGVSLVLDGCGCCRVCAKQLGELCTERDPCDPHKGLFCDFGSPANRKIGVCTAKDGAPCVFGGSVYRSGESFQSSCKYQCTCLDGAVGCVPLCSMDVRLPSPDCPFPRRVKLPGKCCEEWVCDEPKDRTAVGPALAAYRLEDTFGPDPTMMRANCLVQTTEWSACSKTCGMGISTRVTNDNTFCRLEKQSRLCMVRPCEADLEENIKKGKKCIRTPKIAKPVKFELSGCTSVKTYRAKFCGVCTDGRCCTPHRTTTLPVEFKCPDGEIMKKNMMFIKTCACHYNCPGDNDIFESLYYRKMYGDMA
Test summary: SPR binding kinetics and affinity, murine CTGF
Test settings: 25° C., 1:1 binding model
Observed property: Murine CTGF koff (s⁻¹)
Give bare numbers, in s⁻¹.

Molecule	Observed property	Observed
SEQ ID NO: 28: optimized CTGF-binding hNGAL lipocalin mutein (protein, lipocalin mutein) QDSTSDLIPAPPLSKVPLQQNFQDNQFQGKWYVVGLAGNYRLREDKDPSKMGATIYELKEDKSYDVTQVQFDDKKCLYVIETFVPGSQPGEFTLGAIKSYPGLTSQLVRVVSTNYNQHAMVFVKKVWPNLEYFQIVLYGRTKELTSELKENFIRFSKSLGLPENHIVFPVPIDQCIDG	Murine CTGF koff	8.23e-05

# context switch: different molecule, same Murine CTGF koff
Form field: reported Murine CTGF koff of SEQ ID NO: 34: optimized CTGF-binding hNGAL lipocalin mutein (protein, lipocalin mutein) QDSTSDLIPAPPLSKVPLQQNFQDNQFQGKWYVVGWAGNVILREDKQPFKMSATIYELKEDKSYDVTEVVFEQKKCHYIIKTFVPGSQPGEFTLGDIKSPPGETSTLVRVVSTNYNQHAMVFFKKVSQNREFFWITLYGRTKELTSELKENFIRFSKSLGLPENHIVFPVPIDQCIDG
0.00286
